assayed.target: 17-beta-hydroxysteroid dehydrogenase type 3 (Homo sapiens) (UniProt P37058)
Sequence (P37058 whole entry): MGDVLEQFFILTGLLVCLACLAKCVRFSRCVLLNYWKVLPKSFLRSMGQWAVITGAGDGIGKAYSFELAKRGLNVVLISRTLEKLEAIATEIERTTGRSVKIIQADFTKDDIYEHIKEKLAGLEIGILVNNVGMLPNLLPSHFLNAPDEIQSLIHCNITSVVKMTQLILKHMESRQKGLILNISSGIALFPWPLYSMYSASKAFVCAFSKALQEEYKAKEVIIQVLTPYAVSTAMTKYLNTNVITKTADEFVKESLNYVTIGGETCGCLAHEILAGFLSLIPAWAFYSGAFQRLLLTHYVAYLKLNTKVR
test.description: Inhibition of 17Beta-HSD3 expressed in intact HEK293 cells assessed as transformation of [14C]-4-androstene-3,17-dione into [14C]-testosterone in presence of NADPH at 0.1 uM after 1 hr incubation
Type: cell-based
We begin with a simple list: items and their reported inhibition.
Write the answer as a number in %, unit excluded.

Worked set:
# compound.structure, unit.of.measurement, inhibition
measured = [
    ("COc1cccc(CN2C[C@@H](C)N(C[C@@]3(O)CC[C@@]4(C)[C@@H](CC[C@@H]5[C@@H]4CC[C@]4(C)C(=O)CC[C@@H]54)C3)C[C@@H]2C)c1", "%", 50),
    ("C[C@]12CC[C@](O)(CN3CCN(Cc4cc(C(F)(F)F)cc(C(F)(F)F)c4)CC3)C[C@@H]1CC[C@@H]1[C@@H]2CC[C@]2(C)C(=O)CC[C@@H]12", "%", 25),
    ("CCN(CCN1C[C@]2(CC[C@@]3(C)[C@@H](CC[C@@H]4[C@@H]3CC[C@]3(C)C(=O)CC[C@@H]43)C2)OC1=O)Cc1ccccc1", "%", 40),
]

The record that follows has no inhibition shown yet.
Problem: For the compound `CN(Cc1ccccc1)C[C@@]1(O)CC[C@@]2(C)[C@@H](CC[C@@H]3[C@@H]2CC[C@]2(C)C(=O)CC[C@@H]32)C1` , give its measured inhibition value.
Result: 48

Every entry's value here was drawn from ChEMBL document CHEMBL1811881.
